Assign Ex (nm) to each entry below.
Details: PBS
Please respond with the number in nm and leave the unit unwritten.

Asked: If you can, please state the reported Ex (nm) value of CCOC(=O)CSCCC[Si@]1(C)c2cc(N(C)C)ccc2[C@@]2(OC(=O)c3ccccc32)c2ccc(N(C)C)cc21 .
Given back: 646

Asked: If you can, please state the reported Ex (nm) value of C=C[Si]1(C=C)c2cc3c(cc2C(c2ccccc2C)=c2cc4c(cc21)=[N+](C)CCC4)CCCN3C .
Given back: 683

Asked: If you can, please state the reported Ex (nm) value of CN(C)c1ccc2c(c1)[Si@](C)(CCCN=[N+]=[N-])c1cc(N(C)C)ccc1[C@@]21OC(=O)c2ccccc21 .
Given back: 645

Asked: If you can, please state the reported Ex (nm) value of CN(C)c1ccc2c(c1)[Si@](C)(CCCSCC(=O)O)c1cc(N(C)C)ccc1[C@@]21OC(=O)c2ccccc21 .
Given back: 645

Asked: If you can, please state the reported Ex (nm) value of C[Si]1(C)c2cc(N3CCC3)ccc2C2(OC(=O)c3ccccc32)c2ccc(N3CCC3)cc21 [Compound 031, reference compound] .
Given back: 646

Asked: If you can, please state the reported Ex (nm) value of Cc1ccccc1C1=c2cc3c(cc2[Si](C)(CCCCl)c2cc4c(cc21)CCCN4C)=[N+](C)CCC3 (stereo not shown) .
Given back: 677

Asked: If you can, please state the reported Ex (nm) value of CN(C)c1ccc2c(c1)[Si](C)(C)c1cc(N(C)C)ccc1C21OC(=O)c2ccccc21 [Compound 032, reference compound] .
Given back: 648

###

Conditions: PBS
quantity.kind: Ex (nm)
Please respond with the number in nm and leave the unit unwritten.

Asked: If you can, please state the reported Ex (nm) value of Cc1ccccc1C1=c2cc3c(cc2[Si](c2ccccc2)(c2ccccc2)c2cc4c(cc21)CCCN4C)=[N+](C)CCC3 .
Given back: 690

Asked: If you can, please state the reported Ex (nm) value of Cc1ccccc1C1=C2C=CC(=[N+](C)C)C=C2[Si](C)(c2ccccc2)c2cc(N(C)C)ccc21 (stereo not shown) .
Given back: 657

Asked: If you can, please state the reported Ex (nm) value of CC[Si]1(CC)C2=CC(=[N+](C)C)C=CC2=C(c2ccccc2C)c2ccc(N(C)C)cc21 .
Given back: 648

Asked: If you can, please state the reported Ex (nm) value of COc1cccc(OC)c1C1=C2C=CC(=[N+]3CCC3)C=C2[Si](C)(CCCCl)c2cc(N3CCC3)ccc21 (stereo not shown) .
Given back: 653

Asked: If you can, please state the reported Ex (nm) value of CN(C)c1ccc2c(c1)[Si@](C)(CCCSCC(=O)O)c1cc(N(C)C)ccc1[C@]21OC(=O)c2ccccc21 .
Given back: 645

Asked: If you can, please state the reported Ex (nm) value of Cc1ccccc1C1=C2C=CC(=[N+]3CCC3)C=C2[Si](C)(CCCCl)c2cc(N3CCC3)ccc21 (stereo not shown) .
Given back: 651

Asked: If you can, please state the reported Ex (nm) value of C=C[Si]1(C=C)C2=CC(=[N+]3CCC3)C=CC2=C(c2ccccc2C)c2ccc(N3CCC3)cc21 .
Given back: 658

Asked: If you can, please state the reported Ex (nm) value of COc1cccc(OC)c1C1=C2C=CC(=[N+](C)C)C=C2[Si](C)(CCCCl)c2cc(N(C)C)ccc21 (stereo not shown) .
Given back: 655

Asked: If you can, please state the reported Ex (nm) value of CN(C)c1ccc2c(c1)[Si@](C)(CCCCl)c1cc(N(C)C)ccc1[C@@]21OC(=O)c2ccccc21 .
Given back: 650

Asked: If you can, please state the reported Ex (nm) value of Cc1ccccc1C1=C2C=CC(=[N+](C)C)C=C2[Si](C)(C)c2cc(N(C)C)ccc21 [Compound 001, reference compound] .
Given back: 648

Asked: If you can, please state the reported Ex (nm) value of C[Si@]1(CCCCl)c2cc(N3CCC3)ccc2[C@@]2(OC(=O)c3ccccc32)c2ccc(N3CCC3)cc21 .
Given back: 648

Asked: If you can, please state the reported Ex (nm) value of CCCCCCCC[Si]1(CCCCCCCC)C2=CC(=[N+](C)C)C=CC2=C(c2ccccc2C)c2ccc(N(C)C)cc21 .
Given back: 651

Asked: If you can, please state the reported Ex (nm) value of Cc1ccccc1C1=C2C=CC(=[N+](C)C)C=C2[Si](c2ccccc2)(c2ccccc2)c2cc(N(C)C)ccc21 .
Given back: 663

Asked: If you can, please state the reported Ex (nm) value of CCOC(=O)CSCCC[Si@]1(C)c2cc(N(C)C)ccc2[C@]2(OC(=O)c3ccccc32)c2ccc(N(C)C)cc21 .
Given back: 645

Asked: If you can, please state the reported Ex (nm) value of Cc1ccccc1C1=c2cc3c(cc2[Si](C)(CCCCl)c2cc4c(cc21)CCN4C)=[N+](C)CC3 (stereo not shown) .
Given back: 693

Asked: If you can, please state the reported Ex (nm) value of Cc1ccccc1C1=C2C=CC(=[N+](C)C)C=C2[Si](C)(CCC(F)(F)F)c2cc(N(C)C)ccc21 (stereo not shown) .
Given back: 650

Asked: If you can, please state the reported Ex (nm) value of CN(C)c1ccc2c(c1)[Si@](C)(CCCI)c1cc(N(C)C)ccc1[C@]21OC(=O)c2ccccc21 .
Given back: 645

Asked: If you can, please state the reported Ex (nm) value of Cc1ccccc1C1=C2C=CC(=[N+]3CCC3)C=C2[Si](C)(C)c2cc(N3CCC3)ccc21 [Compound 024, reference compound] .
Given back: 649

Asked: If you can, please state the reported Ex (nm) value of C=C[Si]1(c2ccccc2)C2=CC(=[N+](C)C)C=CC2=C(c2ccccc2C)c2ccc(N(C)C)cc21 (stereo not shown) .
Given back: 658

Asked: If you can, please state the reported Ex (nm) value of Cc1ccccc1C1=C2C=CC(=[N+](C)C)C=C2[Si](C)([C@H]2CC3C=CC2C3)c2cc(N(C)C)ccc21 (stereo partly shown) .
Given back: 649

Asked: If you can, please state the reported Ex (nm) value of CN(C)c1ccc2c(c1)[Si@](C)(CCCI)c1cc(N(C)C)ccc1[C@@]21OC(=O)c2ccccc21 .
Given back: 645

Asked: If you can, please state the reported Ex (nm) value of CN(C)c1ccc2c(c1)[Si@](C)(CCCCl)c1cc(N(C)C)ccc1[C@]21OC(=O)c2ccccc21 .
Given back: 650

Asked: If you can, please state the reported Ex (nm) value of Cc1ccccc1C1=C2C=CC(=[N+](C)C)C=C2[Si](C)(c2cccc(N(C)C)c2)c2cc(N(C)C)ccc21 (stereo not shown) .
Given back: 651

Asked: If you can, please state the reported Ex (nm) value of Cc1ccccc1C1=C2C=CC(=[N+](C)C)C=C2[Si]2(CCCCC2)c2cc(N(C)C)ccc21 .
Given back: 650

Asked: If you can, please state the reported Ex (nm) value of CN(C)c1ccc2c(c1)[Si@](C)(CCCN=[N+]=[N-])c1cc(N(C)C)ccc1[C@]21OC(=O)c2ccccc21 .
Given back: 645

Asked: If you can, please state the reported Ex (nm) value of Cc1ccccc1C1=C2C=CC(=[N+](C)C)C=C2[Si]2(CCCC2)c2cc(N(C)C)ccc21 .
Given back: 653

Asked: If you can, please state the reported Ex (nm) value of C=C[Si]1(C=C)c2cc3c(cc2C(c2ccccc2C)=c2cc4c(cc21)=[N+](C)CC4)CCN3C .
Given back: 702

Asked: If you can, please state the reported Ex (nm) value of C=C[Si]1(C)C2=CC(=[N+](C)C)C=CC2=C(c2ccccc2C)c2ccc(N(C)C)cc21 (stereo not shown) .
Given back: 651
